- assay_system: HIV-1 YU-2 gp120 (HIV-1 (YU-2), UniProt P35961)
- measurement_notes: SPR
pIC50: −log10 of the molar value.
Below: a set of entries, each annotated with reported pIC50.

[
  {
    "binder": "Fab m18 S62A (HCDR2) (Fab, V domains shown) VH: VQLLESGPGVVKPSETLSLTCTVSGASVNNYYWTWVRQPPGKGLEWIGNVYDSGDTNYNPALSSRLSLSMDTSKNQFSLRLSSVTAADTATYYCARYHRHFIRGPLSFDYWGRGTLVTVSS VL: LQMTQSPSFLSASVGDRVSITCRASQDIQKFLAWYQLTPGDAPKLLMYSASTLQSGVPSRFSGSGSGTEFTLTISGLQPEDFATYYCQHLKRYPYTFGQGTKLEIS",
    "lt_gt_eq": "<",
    "pIC50": 6.00
  },
  {
    "binder": "Fab m18 T53A (LCDR2) (Fab, V domains shown) VH: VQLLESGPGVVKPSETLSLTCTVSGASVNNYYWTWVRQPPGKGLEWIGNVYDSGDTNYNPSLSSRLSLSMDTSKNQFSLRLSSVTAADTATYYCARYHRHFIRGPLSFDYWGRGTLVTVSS VL: LQMTQSPSFLSASVGDRVSITCRASQDIQKFLAWYQLTPGDAPKLLMYSASALQSGVPSRFSGSGSGTEFTLTISGLQPEDFATYYCQHLKRYPYTFGQGTKLEIS",
    "lt_gt_eq": "<",
    "pIC50": 6.30
  },
  {
    "binder": "Fab m18 Q30A (LCDR1) (Fab, V domains shown) VH: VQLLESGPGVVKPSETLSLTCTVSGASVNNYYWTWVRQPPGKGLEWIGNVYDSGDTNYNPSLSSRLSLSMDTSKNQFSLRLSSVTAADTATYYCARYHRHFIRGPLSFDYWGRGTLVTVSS VL: LQMTQSPSFLSASVGDRVSITCRASQDIAKFLAWYQLTPGDAPKLLMYSASTLQSGVPSRFSGSGSGTEFTLTISGLQPEDFATYYCQHLKRYPYTFGQGTKLEIS",
    "lt_gt_eq": "=",
    "pIC50": 6.89
  },
  {
    "binder": "Fab m18 (wild type) (Fab, V domains shown) VH: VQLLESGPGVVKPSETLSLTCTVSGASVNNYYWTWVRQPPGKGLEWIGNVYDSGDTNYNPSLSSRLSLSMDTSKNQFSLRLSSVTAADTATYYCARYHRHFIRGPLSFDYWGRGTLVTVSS VL: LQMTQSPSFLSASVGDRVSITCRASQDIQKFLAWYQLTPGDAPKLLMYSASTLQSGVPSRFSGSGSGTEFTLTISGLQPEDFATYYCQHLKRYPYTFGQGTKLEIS",
    "lt_gt_eq": "=",
    "pIC50": 7.44
  },
  {
    "binder": "Fab m18 D28A (LCDR1) (Fab, V domains shown) VH: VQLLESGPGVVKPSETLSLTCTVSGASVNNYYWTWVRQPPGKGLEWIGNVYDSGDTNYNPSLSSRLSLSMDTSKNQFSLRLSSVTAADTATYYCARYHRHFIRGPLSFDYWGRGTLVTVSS VL: LQMTQSPSFLSASVGDRVSITCRASQAIQKFLAWYQLTPGDAPKLLMYSASTLQSGVPSRFSGSGSGTEFTLTISGLQPEDFATYYCQHLKRYPYTFGQGTKLEIS",
    "lt_gt_eq": "=",
    "pIC50": 7.15
  }
]
